target.under.test: Voltage-gated inwardly rectifying potassium channel KCNH2 (Homo sapiens) (UniProt Q12809)
Sequence (Q12809 whole entry, looked up): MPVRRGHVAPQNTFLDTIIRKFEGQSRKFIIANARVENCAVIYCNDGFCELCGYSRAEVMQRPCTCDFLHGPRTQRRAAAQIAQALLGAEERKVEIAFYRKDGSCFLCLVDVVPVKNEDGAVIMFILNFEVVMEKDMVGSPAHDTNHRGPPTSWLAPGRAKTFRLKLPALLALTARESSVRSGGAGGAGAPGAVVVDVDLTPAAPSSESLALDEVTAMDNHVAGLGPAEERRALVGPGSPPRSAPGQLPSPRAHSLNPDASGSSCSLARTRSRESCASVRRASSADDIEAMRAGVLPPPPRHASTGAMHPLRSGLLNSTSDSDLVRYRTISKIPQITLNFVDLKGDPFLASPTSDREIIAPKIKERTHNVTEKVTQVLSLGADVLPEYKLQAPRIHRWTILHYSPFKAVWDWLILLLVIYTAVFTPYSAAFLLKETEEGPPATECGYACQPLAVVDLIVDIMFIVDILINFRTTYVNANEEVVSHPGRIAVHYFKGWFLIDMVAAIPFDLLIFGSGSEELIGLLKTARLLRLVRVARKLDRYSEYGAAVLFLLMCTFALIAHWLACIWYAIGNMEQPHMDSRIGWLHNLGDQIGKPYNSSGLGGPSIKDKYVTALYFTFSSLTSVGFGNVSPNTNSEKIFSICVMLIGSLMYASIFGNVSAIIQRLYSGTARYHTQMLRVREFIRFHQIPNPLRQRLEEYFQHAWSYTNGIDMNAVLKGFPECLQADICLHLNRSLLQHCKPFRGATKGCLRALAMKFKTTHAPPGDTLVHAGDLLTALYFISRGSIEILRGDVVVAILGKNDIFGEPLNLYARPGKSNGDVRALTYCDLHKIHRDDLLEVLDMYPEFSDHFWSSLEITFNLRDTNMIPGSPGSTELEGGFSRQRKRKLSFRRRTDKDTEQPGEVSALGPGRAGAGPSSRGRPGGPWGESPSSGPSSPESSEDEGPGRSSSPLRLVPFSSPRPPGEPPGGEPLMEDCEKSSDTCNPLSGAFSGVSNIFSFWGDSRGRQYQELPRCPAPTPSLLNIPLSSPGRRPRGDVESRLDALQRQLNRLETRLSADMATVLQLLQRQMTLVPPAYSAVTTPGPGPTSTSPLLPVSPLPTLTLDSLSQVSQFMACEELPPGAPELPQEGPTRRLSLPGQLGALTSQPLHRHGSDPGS
procedure.text: Human Ether-a-go-go-Related Gene (hERG) channel small molecule antagonists: fluorescence cell-based qHTS assay (AID 1671200); also: nearly all actives have a fitted effect of over 50% in size
test.parameters: hERG-U2OS cells, FluxOR thallium flux fluorescence; series mostly up to 76.8 µM
Inconclusive results are not listed. Calls of active or inactive are those of the source. Calls follow the shape of the dose curve; as a rule, active = well fitted inhibition curve with a large enough effect in the repeat runs; inconclusive = weak or mixed curves; inactive = flat fitted curve, though single readings scatter.
Response enum: True (active), False (inactive)

Lookup: What did the test return for `Nc1nnc(-c2ccc([N+](=O)[O-])o2)o1` ?
Found: False

Lookup: So what was the verdict on `CCCCN(CCN(CCCC)C(=O)N1CCOCC1)C(=O)N1CCOCC1` in this test?
Found: False

Lookup: Each compound tested received a call. Report the one for `CC1=C(Br)C(=O)C(Br)=C/C1=C(/c1ccccc1S(=O)(=O)O)c1cc(Br)c(O)c(Br)c1C` .
Found: False

Lookup: Give the logged outcome of this assay for the following compound: `O=C1Cc2cc(Cl)ccc2N1`
Found: False

Lookup: Status in this test for `CCn1cc(C(=O)O)c(=O)c2cc(F)c(N3CCNCC3)cc21` ?
Found: False

Lookup: # lookup: test call for `C[C@@H]1CN(CCCn2c3ccccc3c3ccccc32)C[C@H](C)N1`
Found: True

Lookup: Would you mind telling me which call this test gave `CCC(C)(C)OC` ?
Found: False

Lookup: What was the test verdict on C=C1CCC2CC1C2(C)C (stereo not given) ?
Found: False

Lookup: Test call for this compound, please: `O=C(O)c1ccc(OCCCOc2ccc(C(=O)O)cc2)cc1`
Found: False

Lookup: Give the logged outcome of this assay for the following compound: `C/C=C(/C(=C/C)c1ccc(O)cc1)c1ccc(O)cc1`
Found: False

Lookup: Which result was noted for this compound in the test: `NNC(=O)CP(=O)(c1ccccc1)c1ccccc1`
Found: False

Lookup: What did this assay record as the result for CC1(C)S[C@@H]2[C@H](NC(=O)C(c3ccccc3)S(=O)(=O)O)C(=O)N2[C@H]1C(=O)O (stereo not given in full) ?
Found: False

Lookup: Recorded test outcome, item `CCC=CC#N`
Found: False

Lookup: Each compound tested received a call. Report the one for `C=C(C)C(=O)OCCOCCOC(=O)C(=C)C` .
Found: False

Lookup: What outcome does the record of this test show for `O=C1c2ccccc2C(=O)N1CCc1noc(-c2ccc(CN3CCCCCC3)s2)n1` ?
Found: True

Lookup: Outcome? CN1C(=O)N(c2ccccc2Br)Cc2cnc(Nc3ccc4c(c3)OCC(CO)O4)nc21 (stereo not given)
Found: True

Lookup: Dear all, I need the recorded test outcome for `CC1=Nc2ccc3ccccc3c2C1(C)C` , thank you.
Found: False

Lookup: GET /call?item= `OC[C@H]1O[C@@H](n2cnc3c(=S)nc[nH]c32)[C@H](O)[C@@H]1O` returns the recorded outcome of this test.
Found: False

Lookup: Would you mind telling me which call this test gave `CC(=O)Oc1ccc([N+](=O)[O-])cc1CCl` ?
Found: False

Lookup: Fill in: this test's call for `CCOC(=O)c1ccc(I)cc1` is ___
Found: False

Lookup: Dear colleague, could you share the recorded outcome for `Cc1ccccc1N=C(N)Nc1ccccc1C` when you have a moment?
Found: False

Lookup: Hi, do you know how `CN1C(C(=O)Nc2ccccn2)=C(O)c2sccc2S1(=O)=O` came out in this test?
Found: False

Lookup: Could you kindly confirm the outcome this assay logged for `CC1(C)[C@H](C(=O)O)N2C(=O)C[C@H]2S1(=O)=O` ?
Found: False

Lookup: How was CC1CC(C)C(=O)C1=O (stereo not given) classified in this test?
Found: False

Lookup: Recorded call for `CC(C)Nc1cccnc1N1CCN(C(=O)c2cc3cc(NS(C)(=O)=O)ccc3[nH]2)CC1` ?
Found: True
